Item-by-item account of MFI
# subject-of-test: T1, ESO157 homolog 1 peptide (…)/HLA-A*02:01 on T2 cells (human)
# T1 construct: also called ESO157 H1
# assay-remarks: FACS, phage on T2 cells, 50 ug/ml peptide;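 further: binding of phage clones to peptide/MHC complexes detected by flow cytometry after staining with an anti-M13 antibody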

In the examples that follow, each entry is paired with its recorded MFI.
* phage clone 35-3, affinity maturation variant of clone #35 (scFv, V domains shown) VH: QVQLVQSGAEVKKPGSSVKVSCKASGDTFSSYYISWVRQAPGQGLEWMGRIIPILGIANYAQKYQGRVTLSADKSTSTSYMELNSLRSEDTAVYYCAREWSYSIDYWGQGTLVTVSS VL: QSVVTQPPSVSAAPGQKVTISCSGSSSNIGNNYVSWYQQLPGTAPKLLIYDNNKRPSGIPDRFSGSKSGTSATLGITGLRTGDEADYYCGTWDSSLSAWVFGGGTKLTVLG | 18.8
* phage clone 35-14, affinity maturation variant of clone #35 (scFv, V domains shown) VH: QVQLVQSGAEVKKPGSSVKVSCKASGDTFSSYYISWVRQAPGQGLEWMGRIIPILGIANYAQKYQGRVTLSADKSTSTSYMELNSLRSEDTAVYYCAREWSYSIDYWGQGTLVTVSS VL: QSVVTQPPSVSAAPGQKVTISCSGSSSNIGNNYVSWYQQLPGTAPELLIYDNNKRPSGIPDRFSGSKSGTSATLGITGLQTGDEADYYCGTWDSSLSAWVFGGGTKLTVL | 20.8

[ask] Reported MFI for phage clone 35-20, affinity maturation variant of clone #35 (scFv, V domains shown) VH: QVHLVQSGAEVKKPGSSVKVSCKASGDTFSSYYISWVRQAPGQGLEWMGRIIPILGIANYAQKYQGRVTLSADKSTSTSYMELNSLRSEDTAVYYCARDWSYSIDYWGQGTLVTVSS VL: QSVVTQPPSVSAAPGQKVTISCSGSSSNIGNNYVSWYQQLPGTAPKLLIYDNNKRPSGIPDRFSGSKSGTSATLGITGLQTGDEADYYCGTWDSSLSAWVFGGGTKLTVL : what is it?
[reply] 21

These measurements were taken from patent US20190382504A1.
